# ASSAY_SYSTEM: hLTBP3-proTGFβ1 complex made by transfected cells (cell-based potency assay) (human, UniProt Q9NS15 44-1303; P01137 30-390)
# Sequence (Q9NS15 44-1303, chain 1 of 2): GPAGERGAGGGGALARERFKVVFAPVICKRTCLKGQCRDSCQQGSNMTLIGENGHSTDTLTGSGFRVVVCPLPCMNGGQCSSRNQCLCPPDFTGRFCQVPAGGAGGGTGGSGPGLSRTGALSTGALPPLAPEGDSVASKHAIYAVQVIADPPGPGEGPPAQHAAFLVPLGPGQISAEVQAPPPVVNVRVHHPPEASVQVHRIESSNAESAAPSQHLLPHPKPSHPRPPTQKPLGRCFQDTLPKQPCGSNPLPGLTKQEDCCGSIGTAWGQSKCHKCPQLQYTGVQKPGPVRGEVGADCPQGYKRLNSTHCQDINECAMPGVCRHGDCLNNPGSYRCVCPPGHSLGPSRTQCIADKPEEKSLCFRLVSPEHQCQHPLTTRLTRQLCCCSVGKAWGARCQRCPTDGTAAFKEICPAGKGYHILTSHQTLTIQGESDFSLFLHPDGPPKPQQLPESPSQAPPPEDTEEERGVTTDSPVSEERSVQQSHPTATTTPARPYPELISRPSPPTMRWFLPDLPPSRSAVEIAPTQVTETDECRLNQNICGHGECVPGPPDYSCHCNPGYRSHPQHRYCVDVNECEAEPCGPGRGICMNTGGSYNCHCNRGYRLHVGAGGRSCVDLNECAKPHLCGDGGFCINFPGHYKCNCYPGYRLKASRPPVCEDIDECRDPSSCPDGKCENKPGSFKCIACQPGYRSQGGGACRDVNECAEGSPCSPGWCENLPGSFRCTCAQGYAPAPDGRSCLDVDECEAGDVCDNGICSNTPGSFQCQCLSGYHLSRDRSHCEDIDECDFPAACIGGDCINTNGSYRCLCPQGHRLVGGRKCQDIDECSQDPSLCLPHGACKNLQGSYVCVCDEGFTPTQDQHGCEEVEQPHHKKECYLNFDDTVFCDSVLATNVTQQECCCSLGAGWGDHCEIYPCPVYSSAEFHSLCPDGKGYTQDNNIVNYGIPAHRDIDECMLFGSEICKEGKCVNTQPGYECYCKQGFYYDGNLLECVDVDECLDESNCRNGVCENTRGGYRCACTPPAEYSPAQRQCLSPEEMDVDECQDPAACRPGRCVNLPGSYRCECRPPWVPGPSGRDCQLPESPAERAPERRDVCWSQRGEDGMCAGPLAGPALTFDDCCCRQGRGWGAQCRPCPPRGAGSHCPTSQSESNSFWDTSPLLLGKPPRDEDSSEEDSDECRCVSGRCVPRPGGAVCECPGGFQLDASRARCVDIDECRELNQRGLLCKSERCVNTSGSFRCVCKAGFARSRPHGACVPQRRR
# Sequence (P01137 30-390, chain 2 of 2): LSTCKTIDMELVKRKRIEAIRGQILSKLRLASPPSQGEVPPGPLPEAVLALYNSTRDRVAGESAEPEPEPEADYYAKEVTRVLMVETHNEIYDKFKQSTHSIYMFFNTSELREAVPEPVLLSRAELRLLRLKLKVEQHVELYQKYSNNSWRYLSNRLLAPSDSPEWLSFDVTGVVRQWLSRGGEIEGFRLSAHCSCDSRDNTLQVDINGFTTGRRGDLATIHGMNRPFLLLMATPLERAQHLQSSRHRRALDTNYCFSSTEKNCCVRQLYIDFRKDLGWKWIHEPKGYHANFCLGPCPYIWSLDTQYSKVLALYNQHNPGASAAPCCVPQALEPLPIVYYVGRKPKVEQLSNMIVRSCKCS
# ASSAY_PROTOCOL: cell-based or functional assay
METRIC: IC50, reporter cell assay of TGFβ1 activation

* Ab2 (antibody, human IgG4 S228P, kappa, V domains shown) VH: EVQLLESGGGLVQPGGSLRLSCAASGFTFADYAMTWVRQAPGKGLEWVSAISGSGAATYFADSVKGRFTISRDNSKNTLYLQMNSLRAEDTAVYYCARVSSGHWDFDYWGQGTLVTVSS VL: DIQLTQSPSSLSASVGDRVTITCRASQSISSYLNWYQQKPGKAPKLLIYAASNLQSGVPSRFSGSGSGTDFTLTISSLQPEDFATYYCQQTYTVPLTFGGGTKVEIKR | 0.867 nM

As a next step, examine the binder that follows.
### Prompt Item Ab23 (antibody, V domains shown) VH: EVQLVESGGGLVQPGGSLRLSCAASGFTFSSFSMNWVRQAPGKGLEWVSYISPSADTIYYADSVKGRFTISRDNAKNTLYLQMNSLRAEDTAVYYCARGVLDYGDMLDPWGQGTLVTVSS VL: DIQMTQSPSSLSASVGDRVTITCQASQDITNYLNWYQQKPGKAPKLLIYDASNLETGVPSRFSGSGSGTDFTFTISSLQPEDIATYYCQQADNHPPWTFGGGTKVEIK : provide IC50, reporter cell assay of TGFβ1 activation
### Response 0.879 nM

src = patent US20220064275A1
